- Test system: leukotriene E4 induced bronchoconstriction
- assay protocol: Guinea Pig Bronchoconstriction, In Vivo (Aerosol), leukotriene E4 challenge
- Parameters: species or system guinea pig (Hartley strain)
- condition label: five minute aerosol exposure (% w/v aerosol solution); maximum constrictory dose of leukotriene E4 i.v.; propanolol pretreatment
experimental readout: Guinea Pig Bronchoconstriction In vivo aerosol - IC50(%)
Record the value in %, omitting the unit from your answer.

Sample answers from the record:
{"columns": ["compound", "tested system", "observed result"],
 "data": [
  ["CCCc1c(OCCCOc2ccc3c(c2)CCC(C)(C(=O)O)O3)ccc(C(C)=O)c1O (racemic)", "leukotriene E4 induced bronchoconstriction", 0.20],
  ["CCCc1c(OCCCOc2c(C)c(C)c3c(c2C)CCC(C)(CC(=O)O)O3)ccc(C(C)=O)c1O (racemic)", "leukotriene E4 induced bronchoconstriction", 1.0],
  ["CCCc1c(OCCCCCCCOc2cc3c(cc2C(C)=O)CCC(C(=O)O)O3)ccc(C(C)=O)c1O (racemic)", "leukotriene E4 induced bronchoconstriction", 1.0],
  ["CCCc1c(OCCCOc2ccc3c(c2)OC(CC(=O)O)CC3)ccc(C(C)=O)c1O (racemic)", "leukotriene E4 induced bronchoconstriction", 0.67],
  ["CCCc1c(OCCCOc2c(C)c(C)c3c(c2C)CCC(C(=O)O)O3)ccc(C(C)=O)c1O (racemic)", "leukotriene E4 induced bronchoconstriction", 1.0]
]}

In plain terms, CCCc1c(OCCCOc2cc3c(cc2C(C)=O)CCC(C(=O)O)O3)ccc(C(C)=O)c1O (racemic) has a documented Guinea Pig Bronchoconstriction In vivo aerosol - IC50(%) of 0.20

In plain terms, CCCc1c(OCCCCCOc2cc3c(cc2C(C)=O)CCC(C(=O)O)O3)ccc(C(C)=O)c1O (racemic) has a documented Guinea Pig Bronchoconstriction In vivo aerosol - IC50(%) of 0.052

In plain terms, CCCc1c(OCCCOc2cc3c(cc2C(C)=O)OC(C)(C(=O)O)CC3)ccc(C(C)=O)c1O (racemic) has a documented Guinea Pig Bronchoconstriction In vivo aerosol - IC50(%) of 1.0

In plain terms, CCCc1c(OCCCOc2ccc3c(c2)OC(C(=O)O)CC3)ccc(C(C)=O)c1O (racemic) has a documented Guinea Pig Bronchoconstriction In vivo aerosol - IC50(%) of 0.14

In plain terms, CCCc1c(OCCCOc2ccc3c(c2)CCC(CC(=O)O)O3)ccc(C(C)=O)c1O (racemic) has a documented Guinea Pig Bronchoconstriction In vivo aerosol - IC50(%) of 1.0

====

- System: leukotriene E4 induced bronchoconstriction
- assay protocol: Guinea Pig Bronchoconstriction, In Vivo (Aerosol), leukotriene E4 challenge
- Design: species or system guinea pig (Hartley strain)
- condition label: five minute aerosol exposure (% w/v aerosol solution); maximum constrictory dose of leukotriene E4 i.v.; propanolol pretreatment
- Protocol: (b) Guinea Pig Bronchoconstriction, In Vivo (Aerosol): Male guinea pigs (Hartley strain) weighing 300 to 500 g are anesthetized with urethane (2 g/kg) intraperitoneally and a polyethylene cannula is inserted into the jugular vein for drug administration. Tracheal pressure is recorded from a cannula inserted in the trachea and connected to a Statham pressure transducer. After surgical preparation of the animals, a period of time is allowed for pulmonary functions to stabilize. […]
Label Condition met when Guinea Pig Bronchoconstriction In vivo aerosol - IC50(%) < 0.4%; otherwise Condition not met.

Below, 3 compounds whose answers are already recorded.
{"columns": ["compound", "category"],
 "data": [
  ["CCCc1c(OCCCOc2ccc3c(c2)CCC(C)(CCC(=O)O)O3)ccc(C(C)=O)c1O (racemic)", "Condition not met"],
  ["CCCc1c(OCCCOc2ccc3c(c2C(C)=O)OC(C(=O)O)CC3)ccc(C(C)=O)c1O (racemic)", "Condition not met"],
  ["CCCc1c(OCCCOc2ccc3c(c2)CCC(C(=O)O)O3)ccc(C(C)=O)c1O (racemic)", "Condition not met"]
]}

Here's an entry: CCCc1c(OCCCOc2ccc3c(c2)OCC(C(=O)O)C3)ccc(C(C)=O)c1O (racemic) . Is its Guinea Pig Bronchoconstriction In vivo aerosol - IC50(%) below 0.4%? Condition not met

Here's an entry: CCCc1c(OCCCOc2cc3c(cc2C(C)=O)OC(C(=O)O)CC3)ccc(C(C)=O)c1O (racemic) . Is its Guinea Pig Bronchoconstriction In vivo aerosol - IC50(%) below 0.4%? Condition met

Here's an entry: CCCc1c(OCCCOc2c(C(C)=O)cc3c(c2CCC)OC(C)(CCC(=O)O)CC3)ccc(C(C)=O)c1O (racemic) . Is its Guinea Pig Bronchoconstriction In vivo aerosol - IC50(%) below 0.4%? Condition met

Here's an entry: CCCc1c(OCCCOc2ccc3c(c2)OC(C)(CCC(=O)O)CC3)ccc(C(C)=O)c1O (racemic) . Is its Guinea Pig Bronchoconstriction In vivo aerosol - IC50(%) below 0.4%? Condition not met

Here's an entry: CCCc1c(OCCCOc2ccc3c(c2CCC)OC(C(=O)O)CC3)ccc(C(C)=O)c1O (racemic) . Is its Guinea Pig Bronchoconstriction In vivo aerosol - IC50(%) below 0.4%? Condition met

Here's an entry: CCCc1c(OCCCOc2c(C)c(C)c3c(c2C)CCC(C)(C(=O)O)O3)ccc(C(C)=O)c1O (racemic) . Is its Guinea Pig Bronchoconstriction In vivo aerosol - IC50(%) below 0.4%? Condition not met

Here's an entry: CCCc1c(OCCCOc2ccc3c(c2CCC)OC(C)(CCC(=O)O)CC3)ccc(C(C)=O)c1O (racemic) . Is its Guinea Pig Bronchoconstriction In vivo aerosol - IC50(%) below 0.4%? Condition not met

Here's an entry: CCCc1c(OCCCOc2c(C(C)=O)cc3c(c2CCC)OC(C(=O)O)CC3)ccc(C(C)=O)c1O (racemic) . Is its Guinea Pig Bronchoconstriction In vivo aerosol - IC50(%) below 0.4%? Condition met
